# Test system: RPMI-8226 leukemia
# test_details: NCI tumour cell line growth inhibition, 48 h
property_measured: TGI

Reference set (5 entries):
C[N+]1(C)C2CCC1CC(OC(=O)C(CO)c1ccccc1)C2 (stereo not given)
> 100 µM
O=C1OC2(c3ccccc31)c1cc(I)c(O)c(I)c1Oc1c2cc(I)c(O)c1I
> 100 µM
CN(C)CCNc1c([N+](=O)[O-])cc2c3c(cccc13)C(=O)N(CCN(C)C)C2=O
11.6 µM
NC1=NN(c2ccccc2)C(=O)C1C(=O)C(=O)Nc1cccc(C(F)(F)F)c1 (stereo not given)
> 100 µM
COC(=O)CC1CN(C(=O)OCc2ccccc2)C(C)(C)O1 (stereo not given)
> 100 µM

### Prompt What TGI value was documented for this compound, NC(=S)Nc1nnc(-c2ccc(-c3nnc(NC(N)=S)o3)cc2)o1 ?
### Response > 100 µM

### Prompt What TGI value was documented for this compound, CO[C@@]12C[C@@H](CNC(=O)c3cc(Br)c[nH]3)O[C@@H]1NC(=O)N2 ?
### Response > 100 µM

### Prompt What TGI value was documented for this compound, COC(=O)C1=C(C(=O)OC)C(C(=O)c2ccccc2)N2N=C(c3ccc(Cl)cc3)C=CC12 (stereo not given) ?
### Response 80.1 µM

### Prompt What TGI value was documented for this compound, O=c1oc2ccccc2c(O)c1C(c1ccc2ccccc2c1)c1c(O)c2ccccc2oc1=O ?
### Response > 100 µM

### Prompt What TGI value was documented for this compound, O=C(/C=C/C12c3ccccc3C(c3ccccc31)C1C(=O)NC(=O)C12)c1ccco1 (stereo not given) ?
### Response 4.21 µM

Value source: PubChem BioAssay (NCI)
